# Tested on: SNB-19 CNS
# experiment-description: NCI tumour cell line growth inhibition, 48 h
Quick rule for you: TGI at 50 µM or higher means true, lower means false.

O=C1C2C(C(=O)[N]1[Hg][c]1ccccc1)C1(Cl)C(Cl)=C(Cl)C2(Cl)C1(Cl)Cl (stereo unspecified) : false
O=C1c2ccccc2C2(c3ccc(Cl)cc3)NCc3ccccc3CN12 (stereo unspecified) : true
O=C(Cc1ccccc1)Nc1nnc(CCSCCc2nnc(NC(=O)Cc3ccccc3)s2)s1 : false
CC1CCC2c3c([nH]c4ccccc34)C3C(=O)N(C4CCCCC4)C(=O)C3C2C1 (stereo unspecified) : false
Cn1c(=O)c(C(c2ccccc2)c2c(O)c3ccccc3n(C)c2=O)c(O)c2ccccc21 : true
CC(NC(=O)C(C)C(=O)NCc1ccc(C(F)(F)F)cc1)C(N)=O (stereo unspecified) : true
CCOC(OCC)C(CCc1ccccc1)c1c(N)nc(N)[nH]c1=O (stereo unspecified) : true
COc1ccc(C2C(C(=O)O)=C(COC(C)=O)Oc3cc4c(cc32)OCO4)cc1 (stereo unspecified) : true
O=C1C[C@H](c2ccccc2)C2(C(=O)c3ccccc3C2=O)[C@@H](c2ccccc2)C1 : true
COC(=O)C1CC2(c3ccc(C)cc3)C(c3ccc(C)cc3)=C(c3ccc(C)cc3)C1(c1ccc(C)cc1)S2=O (stereo unspecified) : true
COc1ccc(/C=C/c2nc(N3CCOCC3)c3cc(F)c(F)cc3n2)cc1OC : true
CN(C)CCCNC(=O)c1cc2c3ccccc3[nH]c2c2ncccc12 : true
CCN(CC)c1ccc(/C=C/C(=O)c2cccc(NS(C)(=O)=O)c2)cc1 : true
BrP(NC1CCCCCC1)(c1ccccc1)(c1ccccc1)c1ccccc1 : false
CC(=O)OCCC/C(=C\c1ccc2ccccc2c1)[N+](=O)[O-] : false
O=C1c2cnccc2Cc2cccc3c2N1c1ccccc1S3 : true
Cc1c(N2C(=O)/C(=C\c3ccc(O)cc3)N=C2c2ccccc2)c(=O)n(-c2ccccc2)n1C : true
COc1ccc(OC)c(CNc2ccc(O)c(C(=O)NCCc3ccc(F)cc3)c2)c1 : true
CCOC(=O)CNC(SC)=C(C#N)C#N : true
CC(/C=N/NC1=NCCCCN1)=N\NC1=NCCCCN1 : true

----------
# Test system: RXF 393 renal
# experiment-description: NCI tumour cell line growth inhibition, 48 h
Entries and their measured TGI follow.
readout-name: TGI

CC1OC(OC2C(OC3C[C@@]4(C)C(C[C@H](O)[C@H]5[C@H](C6(C)CCC(C(C)(C)O)O6)CCC54C)[C@]4(C)CC[C@@H](O)C(C)(C)C34)OC(CO)C(O)C2O)C(O)C(O)C1O (stereo partly drawn) (tested in a mixture with another compound) : > 100 µM
COc1cc(/C=C(\NC(=O)c2ccccc2)c2nc3ccc([N+](=O)[O-])cc3[nH]2)cc(OC)c1OC : > 100 µM
COc1cc2c3c(cc(Cl)nc3c1OC)C(O)(CC(C)=O)C(=O)N2 (stereo not drawn) : 30.7 µM

----------
# System: M14 melanoma
# experiment-description: NCI tumour cell line growth inhibition, 48 h; in the data active = GI50 below about 0.43 µM; inactive = the rest
Outcome codes: active, inactive

COc1ccc(-c2nnc3n(C)c(=O)c4ccccc4n23)cc1O : active
O=C(c1ccc(O)cc1)c1ccc(C(=O)c2ccc(O)cc2)cc1 : inactive
Cc1sc2nc(-c3ccccn3)c(/C=N/N=C(N)N)n2c1C : inactive
CC(=O)NNC(=O)c1nn(-c2ccc(Cl)cc2)cc1OC(C)=O : inactive
Cc1cc(N(CCCNc2ccnc3cc(Cl)ccc23)Cc2cccs2)nc(Cl)n1 : inactive
O=C1OCC2=C1C(c1cccc(F)c1)c1cc3c(cc1N2CCO)OCCO3 (stereo unspecified) : active
